These data points were gathered from PubChem BioAssay (NCI).

Reported growth is given for each of the following molecules.
system: RPMI-8226 leukemia; assay: NCI-60 one-dose screen, 48 h (100 = growth as untreated, 0 = no growth, -100 = all killed); conditions: 10 µM unless noted
About 83,000 compounds went through this panel and 20% of them were active in at least one assay; those are over-represented in the sample as a whole.
property-label: growth (%)

INSERT INTO assay_data (molecule, reported_result) VALUES
  ('CC(=O)Oc1ccc(C)cc1C', 102),
  ('C#CCOC(=O)/C=C/c1cn(-c2ccccc2)nc1-c1ccc(OC)cc1', 105),
  ('Cn1cc(-c2csc(-c3cn(C(=O)OC(C)(C)C)c4ccc(Br)cc34)n2)c2ccnc(Cl)c21', 79.4),
  ('Clc1cc(Cl)c(Cl)c(-c2nnc(SCc3ccncc3Br)o2)c1', 72.9),
  ('c1ccc2cc(C[n+]3ccn(CCCCCCCCCCn4cc[n+](Cc5ccc6ccccc6c5)c4)c3)ccc2c1', 9.87),
  ('CC(=O)c1c(C)nc(SCC(=O)Nc2cccc(O)c2)n1-c1ccc(Cl)cc1', 97),
  ('CCCCCCC12CCC(=O)N1CCc1cncn12 (stereo not given)', 94.6),
  ('Cc1cc(N2CCN(CC(=O)Nc3ccc4c(ccn4C)c3)CC2)nc(N2CCCCCC2)n1', 76.1),
  ('Cc1ccc(C[P+](c2ccccc2)(c2ccccc2)c2ccccc2)cc1', -17.6),
  ('COc1cc2c(cc1OCCCN1CCN(CCCOc3cc4c(cc3OC)C(=O)N3CC(F)(F)C[C@H]3C=N4)CC1)N=C[C@@H]1CC(F)(F)CN1C2=O', 5.91);

* * *

Test system: TK-10 renal
Experiment: NCI-60 one-dose screen, 48 h (100 = growth as untreated, 0 = no growth, -100 = all killed)
Conditions: 10 µM unless noted
Experimental: Growth inhibition of the TK-10 human tumor cell line is measured as a screen for anti-cancer activity. Cells are grown in 96 well plates and exposed to the test compound for 48 hours. Compounds are tested at a single concentration, which is 10^-5 M for most compounds. The reported endpoint is percent growth (GI% or GIPRCNT), where numbers from 0 - 100% represent growth inhibition, and numbers from -100% - 0 represent cell death. For example, a value of 40 represents 60% growth inhibition. […]
The panel holds about 83,000 compounds, 20% with a hit somewhere; the sample as a whole holds those more often. Activity calls are given as the source filed them. How the source made its calls: active means growth percent below 10; inactive means the rest.
property-label: growth

INSERT INTO measurements (compound, property_label, reported_result) VALUES
  ('Nc1n[nH]c2cccc(C#Cc3cccc(C(=O)Nc4cc(C(F)(F)F)cc(C(F)(F)F)c4)c3)c12', 'growth', '109% (inactive)'),
  ('CCNCCNc1cc(C2CCCCC2)c(C#N)c2nc3ccccc3n12', 'growth', '27.2% (inactive)'),
  ('Clc1ccc2c(NC3CCC(N4CCOCC4)CC3)ccnc2c1 (stereo not given)', 'growth', '80.8% (inactive)'),
  ('Cc1c(-c2ccc(O)cc2)n(Cc2ccc(OCCN3CCCCCC3)cc2)c2ccc(O)cc12', 'growth', '78% (inactive)'),
  ('COC(=O)/C=C1/SC(=Nc2ccc(C(F)(F)F)cc2)N(CCc2c[nH]c3ccc(O)cc23)C1=O', 'growth', '11.7% (inactive)'),
  ('O=C(c1nn(-c2ccccc2)c2c1CC(NCc1ccc(F)cc1)CC2)N1CCCCC1 (stereo not given)', 'growth', '92.5% (inactive)'),
  ('O=C(Nc1ccccc1)Nc1ncnc2c1ncn2-c1ccc(Cl)cc1', 'growth', '58.9% (inactive)'),
  ('COc1cc2c(cc1OCCCN1CCN(CCCOc3cc4c(cc3OC)C(=O)N3CC(F)(F)C[C@H]3C=N4)CC1)N=C[C@@H]1CC(F)(F)CN1C2=O', 'growth', '115% (inactive)'),
  ('C=C1C(=O)O[C@H]2[C@H]1CC/C(Cn1cc(-c3ccccc3)nn1)=C\CC[C@@]1(C)O[C@@H]21', 'growth', '-72.1% (active)'),
  ('O=C1/C(=C/c2cccc(F)c2)CN(C(=O)C(Cl)Cl)C/C1=C\c1cccc(F)c1', 'growth', '-78.8% (active)'),
  ('OB1OCc2cc(/C=C/c3cccc(C(F)(F)F)c3)ccc21', 'growth', '-19.3% (active)'),
  ('Cn1ccc(=O)c(C(=O)Nc2nsc3ccc([N+](=O)[O-])cc23)c1', 'growth', '50% (inactive)'),
  ('COc1cc(OCc2cccc(Br)c2C)cc(OC)c1C=O', 'growth', '45.4% (inactive)'),
  ('CC(=O)n1nc(C(=O)OC(C)(C)c2ccccc2)c2ccccc21', 'growth', '101% (inactive)'),
  ('O=C(CN1CCOCC1)Nc1nc(-c2cc3ccccc3oc2=O)cs1', 'growth', '154% (inactive)'),
  ('Nc1c(C(=O)Nc2ccccc2C(F)(F)F)sc2nc3c(cc12)CCC3', 'growth', '89.9% (inactive)'),
  ('CCN1C(=O)N(CC)C2C1NN=c1s/c(=C\c3ccccc3F)c(=O)n12 (stereo not given)', 'growth', '70.3% (inactive)'),
  ('COC(=O)c1c(C)nc(C)c2c1C(=O)C(Br)=C(NCc1ccccc1)C2=O', 'growth', '86.6% (inactive)'),
  ('CCOC(=O)c1c(NC(=O)c2cccc(C(F)(F)F)c2)sc2c(CN(C)C)c(O)ccc12', 'growth', '113% (inactive)'),
  ('CCC(=O)Oc1ccc(-c2ccccc2)cc1Br', 'growth', '101% (inactive)');

* * *

Reported growth is given for each of the following molecules.
tested on: MCF7 breast; assay: NCI-60 one-dose screen, 48 h (100 = growth as untreated, 0 = no growth, -100 = all killed); conditions: 10 µM unless noted
Compounds without any hit were thinned out: in the full panel of roughly 83,000, 20% have a hit.
property-label: growth (%)

INSERT INTO measurements (query_smiles, unit_string, reported_result) VALUES
  ('CCCCNCCCCCNc1cc(OC)cc2cccnc12', '%', 84.6),
  ('Cn1cc(-c2csc(-c3c[nH]c4ccccc34)n2)c2cnccc21', '%', 16.7),
  ('COc1cc2ncnc(Nc3ccc(S(=O)(=O)Nc4cc(C)on4)cc3)c2cc1OCCCN1CCN(c2ccc(F)cc2)CC1', '%', 96.8),
  ('O=C(/C=C(/C=C/c1ccc2[nH]ccc2c1)OB(F)F)/C=C/c1ccc2[nH]ccc2c1', '%', 12.5),
  ('CC(=O)Oc1ccc(C)cc1C', '%', 77.7),
  ('Cn1cc(-c2csc(-c3cn(C(=O)OC(C)(C)C)c4ccc(Br)cc34)n2)c2ccnc(Cl)c21', '%', 82.8),
  ('COc1c(C(=O)Nc2ccc(C)c(Br)c2)ccc2ccccc12', '%', 96),
  ('O=C1NC(=C(Cl)Cl)/C(=N\S(=O)(=O)NCc2ccccc2)N1', '%', 74.4),
  ('NS(=O)(=O)c1ccccc1NC(=O)Nc1nc2ccccc2s1', '%', 82.4),
  ('CCOC(=O)c1c(NC(=O)c2ccc(Cl)cc2)sc2c(CN(C)C)c(O)ccc12', '%', 66.6);

* * *

tested on: HS 578T breast; test: NCI-60 one-dose screen, 48 h (100 = growth as untreated, 0 = no growth, -100 = all killed); details: 10 µM unless noted
About 83,000 compounds went through this panel and 20% of them were active in at least one assay; those are over-represented in the sample as a whole.
property-label: growth (%)

INSERT INTO assay_data (molecule, property_label, unit_string, reported_result) VALUES
  ('CC(=O)N1N=C(c2ccc(Nc3nc(Nc4ccccc4)nc(Nc4ccccc4)n3)cc2)CC1c1ccccc1 (centres undefined)', 'growth', '%', 89.3),
  ('COC1=CC(c2ccc[nH]2)=N/C1=C\c1[nH]c(C)c(CC(=O)OCc2ccccc2)c1CCC(=O)OCc1ccccc1', 'growth', '%', -18.9),
  ('COc1cc(OC)c(/C=C/C(=O)c2c(OC)cccc2OC)c(OC)c1', 'growth', '%', 88.7),
  ('C=C(C)[C@@H]1CC[C@]2(C(=O)O)CC[C@]3(C)[C@H](CC[C@@H]4[C@@]5(C)CCC(NC(=O)c6cccc(OC(C)=O)c6OC(C)=O)C(C)(C)[C@@H]5CC[C@]43C)[C@@H]12 (some centres undefined)', 'growth', '%', 15.8);

* * *

test system: CCRF-CEM leukemia; assay: NCI-60 one-dose screen, 48 h; conditions: 10 µM unless noted
The panel holds about 83,000 compounds, 20% with a hit somewhere; the sample as a whole holds those more often. Activity calls are given as the source filed them. The calls were made as follows: active = growth percent below 10; inactive = the rest.
Labels: active, inactive

INSERT INTO measurements (query_smiles, cat) VALUES
  ('Cc1cc(C(=O)O)c(C)n1-c1cccc(C(=O)O)c1', 'inactive'),
  ('O=C(CSc1nc2sc3c(c2c(=O)n1-c1ccccc1)CCCCC3)N/N=C/c1cccc([N+](=O)[O-])c1', 'inactive'),
  ('COCCOc1cc2ncnc(N3CCN(c4cc(S(C)(=O)=O)c(C)cc4Cl)CC3)c2cc1OCCOC', 'inactive'),
  ('CC(C)c1ccc(C(=O)Nc2nc3ccc(O)c(CN(C)C)c3s2)cc1', 'inactive'),
  ('C#CCOc1ccc2ncnc(Nc3ccc(NC(=O)C=C)cc3)c2c1', 'active');
